target: Prostaglandin G/H synthase 1 (Homo sapiens); test: biochemical; type: tissue-based, Platelet; conditions: platelet; further: in other assays of this panel Not Active means under 50% inhibition at 10 µM;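 further: inhibition of COX-1 enzyme activity, with arachidonic acid supplied as substrate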
Sequence (P23219 whole entry): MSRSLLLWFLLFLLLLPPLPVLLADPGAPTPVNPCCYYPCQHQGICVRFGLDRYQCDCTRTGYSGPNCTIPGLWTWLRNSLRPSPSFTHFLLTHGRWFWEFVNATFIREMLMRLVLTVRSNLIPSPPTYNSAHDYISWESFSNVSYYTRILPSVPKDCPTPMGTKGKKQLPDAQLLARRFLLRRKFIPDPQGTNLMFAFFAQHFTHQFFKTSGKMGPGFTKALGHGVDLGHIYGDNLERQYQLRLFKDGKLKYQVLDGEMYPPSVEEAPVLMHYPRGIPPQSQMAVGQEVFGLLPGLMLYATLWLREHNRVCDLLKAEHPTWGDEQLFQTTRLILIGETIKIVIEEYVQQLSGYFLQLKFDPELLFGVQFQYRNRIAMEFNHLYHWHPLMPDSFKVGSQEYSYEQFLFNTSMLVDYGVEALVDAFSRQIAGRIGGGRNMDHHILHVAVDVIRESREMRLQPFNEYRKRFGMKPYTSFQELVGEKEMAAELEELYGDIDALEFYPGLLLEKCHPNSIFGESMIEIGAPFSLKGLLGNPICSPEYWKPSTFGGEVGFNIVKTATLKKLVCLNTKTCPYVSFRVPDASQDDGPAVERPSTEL

{"columns": ["compound", "assayedTarget", "IC50"],
 "data": [
  ["CCN(CC)CCNC(=O)c1cc(Cl)c(N)cc1OC [METOCLOPRAMIDE]", "Prostaglandin G/H synthase 1 (Homo sapiens)", "Not Active"],
  ["C[C@]12CCC(=O)C[C@@H]1CC[C@@H]1[C@@H]2CC[C@]2(C)[C@@H](O)CC[C@@H]12", "Prostaglandin G/H synthase 1 (Homo sapiens)", "Not Active"],
  ["Oc1ncnc2[nH]ncc12", "Prostaglandin G/H synthase 1 (Homo sapiens)", "Not Active"],
  ["COC(=O)Nc1nc2ccc(Sc3ccccc3)cc2[nH]1", "Prostaglandin G/H synthase 1 (Homo sapiens)", "Not Active"],
  ["Nc1nc(F)nc2c1ncn2[C@@H]1O[C@H](CO)[C@@H](O)[C@@H]1O", "Prostaglandin G/H synthase 1 (Homo sapiens)", "Not Active"],
  ["Nc1ccc(C(=O)O)c(O)c1", "Prostaglandin G/H synthase 1 (Homo sapiens)", "Not Active"],
  ["NCC(CC(=O)O)c1ccc(Cl)cc1 (configuration not stated)", "Prostaglandin G/H synthase 1 (Homo sapiens)", "Not Active"],
  ["Cc1[nH]c(=O)c(C#N)cc1-c1ccncc1", "Prostaglandin G/H synthase 1 (Homo sapiens)", "Not Active"],
  ["OC[C@H]1O[C@@H]2O[C@H]3[C@H](O)[C@@H](O)[C@@H](O[C@H]4[C@H](O)[C@@H](O)[C@@H](O[C@H]5[C@H](O)[C@@H](O)[C@@H](O[C@H]6[C@H](O)[C@@H](O)[C@@H](O[C@H]7[C@H](O)[C@@H](O)[C@@H](O[C@H]1[C@H](O)[C@H]2O)O[C@@H]7CO)O[C@@H]6CO)O[C@@H]5CO)O[C@@H]4CO)O[C@@H]3CO", "Prostaglandin G/H synthase 1 (Homo sapiens)", "Not Active"],
  ["Cc1cc2c(s1)Nc1ccccc1N=C2N1CCN(C)CC1", "Prostaglandin G/H synthase 1 (Homo sapiens)", "Not Active"],
  ["NC(=O)CN1CCCC1=O", "Prostaglandin G/H synthase 1 (Homo sapiens)", "Not Active"],
  ["CC(C)(C#N)c1cc(Cn2cncn2)cc(C(C)(C)C#N)c1", "Prostaglandin G/H synthase 1 (Homo sapiens)", "Not Active"],
  ["C#C[C@]1(O)CC[C@H]2[C@@H]3[C@H](C)CC4=C(CCC(=O)C4)[C@H]3CC[C@@]21C", "Prostaglandin G/H synthase 1 (Homo sapiens)", "Not Active"],
  ["C[C@@H]1[C@H](O)[C@@H](C)/C=C/C=C/C=C/C=C/C=C/C=C/C=C/[C@H](O[C@@H]2O[C@H](C)[C@@H](O)[C@H](N)[C@@H]2O)C[C@@H]2O[C@](O)(C[C@@H](O)C[C@@H](O)[C@H](O)CC[C@@H](O)C[C@@H](O)CC(=O)O[C@H]1C)C[C@H](O)[C@H]2C(=O)O", "Prostaglandin G/H synthase 1 (Homo sapiens)", "Not Active"],
  ["CCN(CC)N=O", "Prostaglandin G/H synthase 1 (Homo sapiens)", "Not Active"],
  ["c1ccc2sc(SSc3nc4ccccc4s3)nc2c1 [BENZOTHIAZYL DISULFIDE]", "Prostaglandin G/H synthase 1 (Homo sapiens)", "Not Active"],
  ["CC(=O)Nc1ccc2c(c1)Cc1ccccc1-2", "Prostaglandin G/H synthase 1 (Homo sapiens)", "Not Active"]
]}
